Test method notes: Metabolic stability in human liver microsomes assessed as hepatic extraction ratio
Format: ADME, Microsome
Condition: read-out: Activity
Quantity measured: hepatic extraction ratio
Please reply with the value in numeric form only.

Q: Fill in: hepatic extraction ratio of CN1C(=O)[C@@H](CN2CCCCC2)C[C@H]1C#Cc1ccc2occc2c1 (relative stereo) is ___
Result: 0.68

###

Organism: Homo sapiens
Test method notes: Selectivity for human alpha3beta4 nAChR over human alpha7 nAChR
Everything with Ratio lower than 100 is Not met; everything else, including exactly 100, is Met.

Sample answers from the record:
Q: Entry Cc1ccccc1C#C[C@@H]1C[C@H](CN2CCCCC2)C(=O)N1C (relative stereo) : is its Ratio no less than 100?
Result: Met

Q: Entry CN1C(=O)[C@@H](CN2CCCCC2)C[C@H]1C#Cc1ccc2occc2c1 (relative stereo) : is its Ratio no less than 100?
Result: Met

Q: Entry CN1C(=O)[C@@H](CN2CCCCC2)C[C@H]1C#Cc1ccc2c(ccn2C)c1 (relative stereo) : is its Ratio no less than 100?
Result: Met

---
Q: Entry CN1C(=O)[C@@H](CN2CCCCC2)C[C@H]1C#Cc1ccccc1Cl : is its Ratio no less than 100?
Result: Not met

Q: Entry CN1C(=O)[C@@H](CN2CCCCC2)C[C@H]1c1ccc(-c2ccccc2Cl)cc1 (relative stereo) : is its Ratio no less than 100?
Result: Not met
